measurement_target: T1, SAVSBPM12 streptavidin mutein (G48T) (UniProt P22629 25-183, G48T)
T1 construct: streptavidin with the mutation G48T; Secreted by means of the SacB signal peptide; Its oligomeric state was not measured; also called G48T streptavidin mutein; source: B. subtilis WB800[pSAVSBPM12], secreted, purified (biotin-agarose), denatured and renatured, then iminobiotin-agarose
T1 sequence (P22629 25-183 G72T): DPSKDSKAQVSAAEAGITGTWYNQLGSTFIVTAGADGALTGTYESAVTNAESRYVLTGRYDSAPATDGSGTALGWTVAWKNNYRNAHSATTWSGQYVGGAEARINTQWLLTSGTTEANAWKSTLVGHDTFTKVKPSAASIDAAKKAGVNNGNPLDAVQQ
assay_procedure: SPR; BIAcoreX; synthetic SBP peptide thiol-coupled by its N-terminal cysteine to a CM5 chip, streptavidin variant as analyte; blank flow cell as reference
condition_set: both partners purified
measured_attribute: Kd (nM)
Could you give me the number in nM? Just the number is fine.

Enquiry: So what's the measured Kd for this one? synthetic 59-amino acid peptide with the full length SBP tag (N-terminal cysteine for thiol coupling to the CM5 chip, then the 20-amino-acid glycine-rich linker; the limits are worked out as 1 Cys + 20 linker + 38 SBP = 59; also called SBP tag (peptide); synthetic SBP tag; source: synthetic peptide (Peptide 2.0 Inc.)) peptide: CGGGGSTSGGSTSGGSTSGGGMDEKTTGWRGGHVVEGLAGELEQLRARLEHHPQGQREP
Return: 1.99
